assay method text: folding enthalpy; higher = less favourable; fluorescence melt of hairpins on a sequencing array, two-state fit
details: sodium 0.088 M
// label = MET if folding enthalpy is not less than -30 kcal/mol, otherwise NOT MET

biosequence	group
GCAGATTCGAAAGAATGC (((..(((....))))))	MET
GATCCTATCCAGGATC ((((((....))))))	NOT MET
GATCCTAATTAGGATC ((((((....))))))	NOT MET
GCCCCACGAAAGTGGGC (((.(((....))))))	MET
GAGGTCGGAAACGATCTC (((.(((....))).)))	NOT MET
GAAGAACGAAAGTTGTTC (((.(((....))).)))	NOT MET

====

assay method text: folding enthalpy; higher = less favourable; fluorescence melt of hairpins on a sequencing array, two-state fit
details: sodium 0.088 M
folding enthalpy values, listed per item

biosequence	folding enthalpy / kcal/mol
GGAGCCGAAAGGCTATCC ((((((....)))..)))	-8.64
GTGCACTCGAAAGAGCAC (((..(((....))))))	-27.8
GATCTTACAAAAGATC ((((((....))))))	-26.4
GAAACCGGAAACAGTTTC (((((.(....).)))))	-25
GTCCGCCGAAAGGCTGAC (((.(((....))).)))	-21.9
GTCGAAGGAAACTTCAAC ((.((((....)))).))	-12.4
GAATGCGAAAGCATGTTC ((((((....)))..)))	-11.2
GATCCATTGCTGGATC ((((((....))))))	-36.6
GCTACGGGAAACCGTAAC (.(((((....))))).)	-13.7
GCGTAACGACGC ((((....))))	-21.9
GGTTTTGGAAACAAGACC (((.(((....))).)))	-31.6
GTCTATTCGAAAGAAGAC (((..(((....))))))	-8.48
GTTGCCGGAAACGGTGAC ((..(((....)))..))	-22.8
GGAAGGGGAAACCTTTCC ((((.((....)).))))	-23.4
GGGTACCCGAAAGGGCCC (((..(((....))))))	-18.6
GATTCACGAAAGTGGATC (((.(((....))).)))	-39.1
GATCTTGGACAAGATC ((((((....))))))	-41.8
GCCAATGCGAAAGCAGGC (((..(((....))))))	-21.7
GGTGTGGGAAACCACGCC ((.((((....)))).))	-27.4
GCCCAGGGAAACCCGGAC (.((.((....)).)).)	-4.63
GGTTGGGGAAACCTAACC ((((.((....)).))))	-32.4
GGTGTAGGAAACTACGCC ((.((((....)))).))	-43.2
GCGGACAACCGC ((((....))))	-19.5
GCCAACGAAAGTTGGGC ((((((....))).)))	-14.2
GCGAAGCGAAAGCCTTGC ((.(.((....)).).))	-7.85

====

assay method text: folding enthalpy; higher = less favourable; fluorescence melt of hairpins on a sequencing array, two-state fit
details: sodium 0.088 M
folding enthalpy values, listed per item
endpoint: folding enthalpy

biosequence	recorded measurement
GCATTAACGAAAGTTTGC (((..(((....))))))	-16 kcal/mol
GATCGATCGTCGATC ((((((...))))))	-28.7 kcal/mol
GCACCCGGAAACGAGTGC ((((.((....)).))))	-48.8 kcal/mol
GACTCGGCGAAAGCCGTC (((..(((....))))))	-4.78 kcal/mol
GTTCGCGAAAGCGATAAC ((((((....)))..)))	-8.04 kcal/mol
GATCGAACTCTCGATC ((((((....))))))	-35.6 kcal/mol
GCCCGGCCGAAAGGCGGC (((..(((....))))))	-13.2 kcal/mol
GCACAGAAATGTGC (((((....)))))	-33.9 kcal/mol
GGTGTGGGAAACCACATC (.(((((....))))).)	-21.1 kcal/mol
GCGTAGCCGAAAGGCCGC (((..(((....))))))	-16.8 kcal/mol
GATCGTAGTAACGATC ((((((....))))))	-41.5 kcal/mol
GATCTACGTTTAGATC ((((((....))))))	-32.4 kcal/mol

====

assay method text: melting temperature; fluorescence melt of hairpins on a sequencing array, two-state fit, raised by 9.35 °C to match UV melts
details: sodium 0.088 M

biosequence	Tm / °C
GCATTGCGAAAGCAGTGC (((.(((....))).)))	59.8
GGCCACGAAAGTGAAGCC ((((((....)))..)))	53.5
GACCCTGGAAACGGGGTC (((((.(....).)))))	57.6
GTCTTCTCGAAAGAGGAC (((..(((....))))))	33.5
GGTACAGGAAACTGTGTC (..((((....))))..)	28.9
GTTAGCGAAAGCTCGAAC ((((((....)))..)))	22.9

====

assay method text: folding enthalpy; higher = less favourable; fluorescence melt of hairpins on a sequencing array, two-state fit
details: sodium 0.088 M

biosequence	unit descriptor	folding enthalpy
GCCGATGCGAAAGCAGGC (((..(((....))))))	kcal/mol	-20.1
GTCCAGGGAAACCTGGGC (.(((((....))))).)	kcal/mol	-33.1
GATCTTTTTAAAGATC ((((((....))))))	kcal/mol	-41.4
GAGAGTGGAAACGTTCTC ((((..(....)..))))	kcal/mol	-14.4
GATCTCGATCGAGATC ((((((....))))))	kcal/mol	-48.5
GGCATAACGAAAGTTGCC (((..(((....))))))	kcal/mol	-26
GTATATGGAAACGTATAC (((((.(....).)))))	kcal/mol	-24.4
GGTCTCGAAAGAGGGACC ((((((....)))..)))	kcal/mol	-22.4
GCCAGCGAAAGCTATGGC ((((((....)))..)))	kcal/mol	-21.4
GATCGCTAAAGCGATC ((((((....))))))	kcal/mol	-27.7
GTACTGGGAAACTGGTAC ((((..(....)..))))	kcal/mol	-24.5
GGTTACGAAAGTAAAACC ((((((....)))..)))	kcal/mol	-24.3
GCGCTAGGAAACCAGCGC (((((.(....).)))))	kcal/mol	-45.4
GAAGACCGAAAGGTTTC (((.(((....))))))	kcal/mol	-13.9
GATCCGTTTCGGATC ((((((...))))))	kcal/mol	-38
GTTGCCCGAAAGGGGAAC (((.(((....))).)))	kcal/mol	-34.2
GTCGCAGGAAACCGCGAC (((((.(....).)))))	kcal/mol	-43.1
GCCTTCGGAAACGAGGGC (((.(((....))).)))	kcal/mol	-33.6
GTCTGAGGAAACCCAGAC (((((.(....).)))))	kcal/mol	-31.8
GTGGTCCGAAAGGATCAC (((.(((....))).)))	kcal/mol	-41.1
GACGCCGAAAGGCGCGTC ((((((....)))..)))	kcal/mol	-9.77
GATCTCCAAGAGATC ((((((...))))))	kcal/mol	-30.2
GGGCGCGAAAGCGGGCCC ((((((....)))..)))	kcal/mol	-13.4
GACAGCGAAAGCTGGGTC ((((((....)))..)))	kcal/mol	-12.4
GGTTGAGGAAACTCAACC (((((((....)))))))	kcal/mol	-40.1
GGAAACGAAAGTTCCTCC ((((((....)))..)))	kcal/mol	-18.3
GCGGCTTACCGC ((((....))))	kcal/mol	-26.1
GAGAAGGAAACTTCTC ((((((....))))))	kcal/mol	-23.3
GCGGACGGAAACGTCCAC (.(((((....))))).)	kcal/mol	-12.2
CGTTACGGAAACGTACG (((.(((....))))))	kcal/mol	-26.3
GTAGTCGAAAGACTATAC ((((((....)))..)))	kcal/mol	-13.2
GCTTAGCGAAAGCCAAGC ((((.((....)).))))	kcal/mol	-22.1
GTCACCGAAAGGTGTGAC ((((((....)))..)))	kcal/mol	-11.6
GCTTCCGAAAGGAGGAGC ((((((....)))..)))	kcal/mol	-21
GGCTACGAAAGTAGGCC ((((((....))).)))	kcal/mol	-17.3
GCTAAGCGAAAGCATAGC ((((.((....)).))))	kcal/mol	-27
AACTTGAAAAAGTT (((((....)))))	kcal/mol	-14.2
GATGCGCGAAAGCGTATC (((.(((....))).)))	kcal/mol	-27.8
GATCAATACGTTGATC ((((((....))))))	kcal/mol	-37.9
GGTTTGGGAAACTGAACC ((((..(....)..))))	kcal/mol	-29.2
GCGGTGGGAAACCACTGC ((.((((....)))).))	kcal/mol	-38.9
GCTGCCGAAAGGCTAGC ((((((....))).)))	kcal/mol	-16.7
GCCCACACGAAAGTGGGC (((..(((....))))))	kcal/mol	-26.4
GATCCCTAGGGGGATC ((((((....))))))	kcal/mol	-34.8
GCTTTGCGAAAGCTAAGC ((((.((....)).))))	kcal/mol	-28.8
GGAGTGACGAAAGTCTCC (((..(((....))))))	kcal/mol	-18
GAGAAGGGAAACCCTCTC ((((.((....)).))))	kcal/mol	-22.8
GCGTACGAAAGTAGCCGC ((((((....)))..)))	kcal/mol	-14.4
GACGCCGAAAGGCGTGTC ((((((....)))..)))	kcal/mol	-8.76
GAGCCCGAAAGGGTGCTC ((((((....)))..)))	kcal/mol	-18.6
